The values you see were collected from the METLIN SMRT retention time set (Domingo-Almenara et al. 2019).

Test: gradient 5% acetonitrile 3 min, to 50% in 2 min, to 85% in 15 min, held 3 min, 100 µL/min
Settings: column: Zorbax Extend-C18 2.1 x 50 mm; eluents: water / acetonitrile, 0.1% formic acid

[
  {
    "compound": "COc1ccccc1NC(=O)CSc1ccc(N2CCCC(C(=O)NC3CC3)C2)nn1 (centres undefined)",
    "RP-LC retention time (s)": 618
  },
  {
    "compound": "Cc1ccc(CNC(=O)CCC2CCN(c3cc(NC4CC4)ncn3)CC2)o1",
    "RP-LC retention time (s)": 660
  },
  {
    "compound": "CCCCNC(=O)c1ccc(-n2ccnc2SCC(=O)Nc2ccccc2)cc1",
    "RP-LC retention time (s)": 746
  },
  {
    "compound": "NS(=O)(=O)c1cccnc1Nc1cc(F)cc(F)c1",
    "RP-LC retention time (s)": 858
  },
  {
    "compound": "CCn1c(=O)c2c(cc(C)n2C)n(CC(=O)Nc2ccc(OC)c(Cl)c2)c1=O",
    "RP-LC retention time (s)": 794
  },
  {
    "compound": "Cc1ccc(NC(=O)C2CCN(S(C)(=O)=O)c3ccccc3O2)cc1C (centres undefined)",
    "RP-LC retention time (s)": 945
  },
  {
    "compound": "CC(Oc1ccccc1)C(=O)N1CC(n2ccnc2)C1 (centres undefined)",
    "RP-LC retention time (s)": 584
  },
  {
    "compound": "COCCNC(=O)N1CC(c2nc(-c3cccnc3)no2)C2(CCOCC2)C1 (centres undefined)",
    "RP-LC retention time (s)": 596
  },
  {
    "compound": "CCc1sc(NC(=O)Cc2ccc(C)cc2)nc1-c1ccccc1",
    "RP-LC retention time (s)": 1150
  },
  {
    "compound": "COc1ccc(NC(=O)c2c(S(=O)(=O)Nc3ccc(Cl)cc3)n[nH]c2C)cc1OC",
    "RP-LC retention time (s)": 788
  },
  {
    "compound": "COC(=O)C1=CN(c2ccc(OC)c(OC)c2)c2cc(F)ccc2S1(=O)=O",
    "RP-LC retention time (s)": 821
  },
  {
    "compound": "Cc1ccc(Cn2c(=O)n(CCNC(=O)C(C)C)c3ncccc32)cc1",
    "RP-LC retention time (s)": 769
  },
  {
    "compound": "O=C(CCn1ccc2cc(S(=O)(=O)N3CCCCCC3)ccc21)N1CCN(c2ccccn2)CC1",
    "RP-LC retention time (s)": 710
  },
  {
    "compound": "CN(CCc1noc(COc2ccc(Cl)cc2)n1)C(=O)NCCc1ccccc1",
    "RP-LC retention time (s)": 965
  },
  {
    "compound": "CN(C)CCn1nnc2cc(-c3noc(-c4cccc(C#N)c4)n3)ccc21",
    "RP-LC retention time (s)": 633
  },
  {
    "compound": "O=C(NCc1ccccc1)C1CN(S(=O)(=O)c2cccnc2)CC12CCCCC2 (centres undefined)",
    "RP-LC retention time (s)": 864
  },
  {
    "compound": "Cc1oc(-c2[nH]ncc2C(=O)N(C)C)cc1S(=O)(=O)Nc1ccc(Cl)cc1F",
    "RP-LC retention time (s)": 714
  },
  {
    "compound": "O=C(CSCC(=O)Nc1nc2ccccc2s1)Nc1nc(-c2cccs2)cs1",
    "RP-LC retention time (s)": 854
  },
  {
    "compound": "COc1ccc(S(=O)(=O)N2CCCC(C(=O)N3CCN(c4ccccc4)CC3)C2)cc1Cl (centres undefined)",
    "RP-LC retention time (s)": 1010
  },
  {
    "compound": "CC(C)c1cc(C2CCCN2C(=O)NC(C)(C)C)on1 (centres undefined)",
    "RP-LC retention time (s)": 835
  },
  {
    "compound": "CCc1ccc(C2=C(C)C(N3CCCN(C(=O)C4CCCO4)CC3)=NS2(=O)=O)cc1 (centres undefined)",
    "RP-LC retention time (s)": 778
  },
  {
    "compound": "COc1ccccc1-c1nnc2sc(-c3cc(CC(C)C)[nH]n3)nn12",
    "RP-LC retention time (s)": 891
  },
  {
    "compound": "O=C(Cn1ncc2c(c1=O)N(C1CC1)C(=O)CS2)NCc1ccco1",
    "RP-LC retention time (s)": 648
  },
  {
    "compound": "Cc1cc(N2CCN(C(=O)c3ccc(N(C)C)cc3)CC2)nc2nnc(C)n12",
    "RP-LC retention time (s)": 579
  },
  {
    "compound": "Cc1cn2c(S(=O)(=O)NC3CCCCC3)c(C(C)C)nc2s1",
    "RP-LC retention time (s)": 999
  },
  {
    "compound": "CCC(=O)NC1Cc2ccccc2C(c2ccccc2)C1 (centres undefined)",
    "RP-LC retention time (s)": 997
  },
  {
    "compound": "Cc1cc(NCC(O)c2ccc([N+](=O)[O-])cc2)nc(-n2nc(C)cc2C)n1 (centres undefined)",
    "RP-LC retention time (s)": 592
  },
  {
    "compound": "O=C(Nc1nc2c(s1)CCCC2C(=O)NCc1ccco1)c1ccc2c(c1)OCO2 (centres undefined)",
    "RP-LC retention time (s)": 789
  },
  {
    "compound": "COc1ccc(-c2cc(N3CCC(NC(=O)c4ccc(OC)cc4OC)C3)n[nH]2)cc1 (centres undefined)",
    "RP-LC retention time (s)": 705
  }
]

* * *

The reader will find reported RP-LC retention time values listed item by item below.
Experiment: gradient 5% acetonitrile 3 min, to 50% in 2 min, to 85% in 15 min, held 3 min, 100 µL/min
Details: column: Zorbax Extend-C18 2.1 x 50 mm; eluents: water / acetonitrile, 0.1% formic acid

[
  {
    "compound": "CN1CCC2(CC1)CN(S(=O)(=O)N(C)C)CC2C(=O)N1CCc2ccccc21 (configuration not stated)",
    "RP-LC retention time, s": 631
  },
  {
    "compound": "O=C(CN1CC=C(c2cnn(-c3ccc(F)cc3)c2)CC1)NCC1CCCO1 (configuration not stated)",
    "RP-LC retention time, s": 628
  },
  {
    "compound": "O=C(NCc1cc(-c2cc3ccccc3o2)on1)c1ccc2c(c1)OCO2",
    "RP-LC retention time, s": 856
  },
  {
    "compound": "COC(=O)CNC(=O)N1CCN(c2nc3ccccc3n(Cc3ccccc3)c2=O)CC1",
    "RP-LC retention time, s": 779
  },
  {
    "compound": "COCCC(=O)N1CCN(c2nc(CN3CCOCC3)cs2)CC1",
    "RP-LC retention time, s": 686
  },
  {
    "compound": "CCOC(=O)C1=C(CN(C)Cc2ccccc2)NC(=O)NC1c1cccs1 (configuration not stated)",
    "RP-LC retention time, s": 642
  },
  {
    "compound": "COC(=O)c1nnn(-c2cc(C)ccc2OC)c1C(=O)OC",
    "RP-LC retention time, s": 862
  },
  {
    "compound": "CN(C)c1ccc(CNC(=O)CCCN2C(=O)CCn3nc(-c4cn(C)c5ccccc45)cc32)cc1",
    "RP-LC retention time, s": 602
  },
  {
    "compound": "CC(=O)Nc1ccc(S(=O)(=O)N2CCN(S(=O)(=O)N(C)C)CC2)cc1",
    "RP-LC retention time, s": 653
  },
  {
    "compound": "CCOC(=O)c1noc2ncnc(N3CCN(c4ccccc4F)CC3)c12",
    "RP-LC retention time, s": 1070
  },
  {
    "compound": "Cc1cc(C)cc(N2CCn3c2nc2c3c(=O)n(CC(=O)O)c(=O)n2C)c1",
    "RP-LC retention time, s": 784
  },
  {
    "compound": "Cc1noc(-c2ccnc(-n3cnc(C(=O)NCc4ccccc4F)c3)c2)n1",
    "RP-LC retention time, s": 833
  }
]

* * *

Below: a set of entries, each annotated with reported RP-LC retention time.
Experiment: gradient 5% acetonitrile 3 min, to 50% in 2 min, to 85% in 15 min, held 3 min, 100 µL/min
Conditions: column: Zorbax Extend-C18 2.1 x 50 mm; eluents: water / acetonitrile, 0.1% formic acid
readout_label: RP-LC retention time (s)

[
  {
    "smiles_str": "COc1ccccc1-c1nc2sc3c(c2c(=O)[nH]1)CCCC3",
    "unit": "s",
    "recorded_result": 1150
  },
  {
    "smiles_str": "O=C(c1ccco1)N1CCN(C(=O)c2nc(-c3ccc(Cl)cc3)n3c2CCCCC3)CC1",
    "unit": "s",
    "recorded_result": 741
  },
  {
    "smiles_str": "Cc1ccccc1-c1noc(Cn2cnc3c(cnn3-c3ccc(Br)cc3)c2=O)n1",
    "unit": "s",
    "recorded_result": 1200
  }
]
